- assay.target: T1, mouse SEMA4D, full length, on CHO-K1 cells (CHO-K1 mSEMA4D) (mouse, UniProt O09126 24-861)
- T1 construct: whole, on cells; also called murine SEMA4D recombinant cells
- T1 sequence (looked up): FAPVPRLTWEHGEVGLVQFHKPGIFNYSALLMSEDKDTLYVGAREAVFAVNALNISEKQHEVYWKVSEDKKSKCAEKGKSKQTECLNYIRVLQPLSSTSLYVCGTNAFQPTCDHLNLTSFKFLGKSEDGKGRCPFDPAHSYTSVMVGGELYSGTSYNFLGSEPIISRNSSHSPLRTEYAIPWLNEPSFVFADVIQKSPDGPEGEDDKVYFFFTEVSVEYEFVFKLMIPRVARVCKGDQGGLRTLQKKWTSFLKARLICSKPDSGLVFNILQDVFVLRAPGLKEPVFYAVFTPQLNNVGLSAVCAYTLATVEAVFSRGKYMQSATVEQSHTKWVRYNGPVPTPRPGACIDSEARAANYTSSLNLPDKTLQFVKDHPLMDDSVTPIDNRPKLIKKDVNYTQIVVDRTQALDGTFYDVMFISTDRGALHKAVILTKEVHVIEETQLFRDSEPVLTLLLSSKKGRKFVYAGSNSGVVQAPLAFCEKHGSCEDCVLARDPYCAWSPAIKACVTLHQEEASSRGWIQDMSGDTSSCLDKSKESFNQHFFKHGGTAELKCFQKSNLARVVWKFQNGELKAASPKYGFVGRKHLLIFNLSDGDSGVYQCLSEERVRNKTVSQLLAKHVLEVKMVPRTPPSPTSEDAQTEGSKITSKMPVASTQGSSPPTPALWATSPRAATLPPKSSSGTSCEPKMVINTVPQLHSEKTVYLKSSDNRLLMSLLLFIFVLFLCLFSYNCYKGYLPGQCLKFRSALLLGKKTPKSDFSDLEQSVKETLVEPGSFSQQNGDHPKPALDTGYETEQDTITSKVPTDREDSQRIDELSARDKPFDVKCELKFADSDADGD
- measurement.description: FACS, CHO-K1 mSEMA4D cells; Ab 0.000853 nM
Quick reference: MFI of the listed items.
attribute.measured: MFI

INSERT INTO measurements (binder, numeric_value) VALUES
  ('37C4F7 (antibody, V domains shown, Mouse monoclonal antibody purified from hybridoma supernatant on protein A) VH: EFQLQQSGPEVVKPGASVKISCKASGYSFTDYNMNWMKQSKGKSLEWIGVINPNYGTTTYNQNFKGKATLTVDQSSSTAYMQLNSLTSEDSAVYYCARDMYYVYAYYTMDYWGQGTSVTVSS VL: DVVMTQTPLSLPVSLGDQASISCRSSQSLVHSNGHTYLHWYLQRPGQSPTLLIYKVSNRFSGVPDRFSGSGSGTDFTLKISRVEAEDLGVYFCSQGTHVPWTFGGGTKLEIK', 30.2),
  ('31C11G2 (antibody, V domains shown, Mouse monoclonal antibody purified from hybridoma supernatant on protein A) VH: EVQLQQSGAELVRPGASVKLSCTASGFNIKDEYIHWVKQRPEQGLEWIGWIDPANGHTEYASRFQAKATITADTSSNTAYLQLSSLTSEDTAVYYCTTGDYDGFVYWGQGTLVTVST VL: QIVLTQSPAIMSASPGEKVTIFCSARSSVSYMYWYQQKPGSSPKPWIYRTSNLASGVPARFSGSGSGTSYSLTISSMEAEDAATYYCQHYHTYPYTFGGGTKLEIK', 30.9);
